System: OVCAR-5 ovarian
testMethodNotes: NCI-60 one-dose screen, 48 h (100 = growth as untreated, 0 = no growth, -100 = all killed)
cond: 10 µM unless noted
Protocol: Growth inhibition of the OVCAR-5 human tumor cell line is measured as a screen for anti-cancer activity. Cells are grown in 96 well plates and exposed to the test compound for 48 hours. Compounds are tested at a single concentration, which is 10^-5 M for most compounds. The reported endpoint is percent growth (GI% or GIPRCNT), where numbers from 0 - 100% represent growth inhibition, and numbers from -100% - 0 represent cell death. For example, a value of 40 represents 60% growth inhibition. […]
Compounds without any hit were thinned out: in the full panel of roughly 83,000, 20% have a hit.
growth: recorded values
The reply should contain only the number, in %.

Observed growth on OVCAR-5 ovarian for `COc1ccc2c(c1)c(-c1cc(N)n3nc(-c4cn(C)c5ccccc45)cc3n1)cn2C` , please.
-38.8

Now give it for C#CCOc1cc(N(CC)CC)ccc1C(C(=O)NC(C)(C)C)N(C(=O)C1CCc2cc(F)ccc2O1)c1ccc(Br)cc1 (centres undefined) too.
87.1

Follow-up item: CC(=O)OCC1OC(OC2C(COC(C)=O)OC(n3cc(COc4ccc5ccc(=O)oc5c4)nn3)C(OC(C)=O)C2OC(C)=O)C(OC(C)=O)C(OC(C)=O)C1OC(C)=O (centres undefined)
112

Would you kindly repeat that for `Cc1cc(=O)oc2cc(OCCCOc3ccc(/C=C/C(=O)Nc4ccccc4N)cc3)ccc12` ?
37.5

---

Tested on: NCI-H226 lung
testMethodNotes: NCI-60 one-dose screen, 48 h
cond: 10 µM unless noted
About 83,000 compounds went through this panel and 20% of them were active in at least one assay; those are over-represented in the sample as a whole. Active and inactive are the calls of the source. Rule for the calls: active = growth percent below 10; inactive = the rest.
Write down one outcome, taken from 1 for active, 0 for inactive

For orientation, consider the following solved cases.
compound=O=C(CN1C(=O)/C(=C/c2ccccc2F)SC1=S)N1CCOCC1 cat=0
compound=COc1ccc(-c2nnc3ccc(N/N=C/c4ccc(O)cc4)nn23)cc1 cat=0
compound="CC1=C(C(=O)c2ccccc2)C(c2cccc(Cl)c2Cl)n2c(nc3ccccc32)N1 (centres undefined)" cat=1
compound=CC1=C(C#N)C2=NNCC(c3ccccc3)=NN2C(c2ccccc2)=C1 cat=0
compound=Cc1ccc(-c2nc(Nc3ccccc3S(N)(=O)=O)c3ccccc3n2)cc1 cat=0
compound=CC(=O)Nc1cccc(Nc2nc(NCc3ccccc3)c3ccccc3n2)c1 cat=1

// outcome(item) with item = `O=C(O)c1cccc(-c2ccc(/C=N/NC(=O)c3[nH]c4ccc(Br)cc4c3-c3ccccc3)s2)c1`
0

Consider next the compound `COc1ccc(C(=O)/C=C/c2cccc(Cl)c2)cc1S(N)(=O)=O` in the same way.
0

Param item: CC1(C)CC[C@]2(C(=O)O)CC[C@]3(C)C(=CCC4[C@@]5(C)C[C@@H](O)[C@@H]6OC(c7cccc(Br)c7)OC[C@@]6(C)C5CC[C@]43C)C2C1 (some centres undefined)
0

---

The reader will find reported growth values listed item by item below.
System: SF-295 CNS
testMethodNotes: NCI-60 one-dose screen, 48 h (100 = growth as untreated, 0 = no growth, -100 = all killed)
cond: 10 µM unless noted
About 83,000 compounds went through this panel and 20% of them were active in at least one assay; those are over-represented in the sample as a whole.
A number alone suffices; assume %.

compound="Cc1ccc(C2=NN(c3nc(-c4cc5ccccc5oc4=O)cs3)C(c3ccc(C)cc3)C2)cc1 (stereo not drawn)" targetofassay="SF-295 CNS" readoutkind=growth measurementunits=% recordedresult=99.6

May I ask what growth has been recorded for `N/C(=N\c1nc2ccccc2s1)NC(=O)Nc1ccc(Cl)cc1Cl` ?
-98.5

Now the same for `COc1ccc(C(=O)/C=C/c2ccc(Oc3nc(Nc4ccc(F)cc4)nc(N(C)C)n3)c(OC)c2)cc1`
51.5

Then `O=c1c2ccccc2nc(-c2ccccc2)n1/N=C/c1ccc2ccccc2c1` ?
46.8

For `CC(=O)Nc1ccc(-c2cn(-c3cccc(C(=O)Nc4ccc(N5CCN(C)CC5)cc4)c3)nn2)cn1` then?
58.6

How about this compound: `Cc1cc2c(cc1Cl)C(=O)/C(=C/c1ccccc1)O2`
24.9

Same read-out for `O=C(COc1ccc(NC(=O)Nc2ccc(Cl)cc2)cc1)N/N=C/c1ccccc1` ?
-96.6

And the next one, C=C1CC[C@@H]2[C@]3(C)COC(c4cn[nH]c4-c4ccc(F)cc4)O[C@@H]3CC[C@@]2(C)[C@@H]1C/C=C1/C(=O)OCC1O (stereo partly drawn) ?
-26.8

Consider next the compound COc1cc2c(c(OC)c1OC)C(=O)CC(c1cccc(NC(=O)c3cc(NC(=O)[C@@H](N)CO)ccc3C)c1)O2 (stereo partly drawn) in the same way.
101

---

Let's look at some compounds and their measured growth.
Tested on: CCRF-CEM leukemia
testMethodNotes: NCI-60 one-dose screen, 48 h (100 = growth as untreated, 0 = no growth, -100 = all killed)
cond: 10 µM unless noted
Compounds without any hit were thinned out: in the full panel of roughly 83,000, 20% have a hit.
// return numeric value only (unit: %, not printed)

compound=N#Cc1c(-c2cccc(Cl)c2Cl)cc(-c2ccc3ccccc3c2)[nH]c1=O readoutkind=growth measurementunits=% recordedresult=38.3

Fill in the blank: the reported growth of `COc1ccc2c(c1)c(/C=N/Nc1ccc3ccccc3n1)cn2C` is ____.
10.8

Would you kindly repeat that for C=C1CC[C@@H]2[C@]3(C)COC(c4cn[nH]c4-c4cccc(Br)c4)O[C@@H]3CC[C@@]2(C)[C@@H]1C/C=C1/C(=O)OCC1O (stereo not given in full) ?
-15.6

Param item: `COc1ccc(C(SCCNCc2cc(N(C)C)ccn2)(c2ccccc2)c2ccccc2)cc1`
4.47

Same lookup for `O=c1oc2ccccc2cc1-c1csc(N=Nc2c(O)[nH]c3ccc(Cl)cc23)n1` , please.
103

Now the same for `CC(=O)Nc1ccc(-c2cn(-c3cccc(C(=O)Nc4ccc(N5CCN(C)CC5)cc4)c3)nn2)cn1`
40

Same read-out for `Cn1cc(-c2nc(N)nnc2-c2c[nH]c3ccc(Br)cc23)c2cc(Br)cnc21` ?
0.493

For `Cc1ccc(S(=O)(=O)c2nc(S(=O)(=O)c3ccc(C)cc3)c(Cl)s2)cc1` then?
5.23

Same again, this time with `Nc1nc(C(F)(F)F)cs1`
109

Likewise for `COc1ccc(-c2ccnc(SCc3cc4cc(OC)ccc4[nH]c3=O)n2)cc1` ?
6.65

And what about the compound `COc1ccc(C(=O)/C=C/c2c(F)cccc2Cl)cc1S(N)(=O)=O` ?
6.01

---

Tested on: SNB-75 CNS
testMethodNotes: NCI-60 one-dose screen, 48 h (100 = growth as untreated, 0 = no growth, -100 = all killed)
cond: 10 µM unless noted
Protocol: Growth inhibition of the SNB-75 human tumor cell line is measured as a screen for anti-cancer activity. Cells are grown in 96 well plates and exposed to the test compound for 48 hours. Compounds are tested at a single concentration, which is 10^-5 M for most compounds. The reported endpoint is percent growth (GI% or GIPRCNT), where numbers from 0 - 100% represent growth inhibition, and numbers from -100% - 0 represent cell death. For example, a value of 40 represents 60% growth inhibition. […]
Compounds without any hit were thinned out: in the full panel of roughly 83,000, 20% have a hit.
The entries below are paired with their reported growth.
Your answer should be a plain number; it is taken to be in %.

A selection of reference data follows.
molecule=O=C(NNc1nc2cc(F)ccc2n2c(C(=O)N3CCN(C4CC4)CC3)ccc12)c1ncccn1 readoutkind=growth recordedresult=73.3
molecule=O=C(/C=C/c1ccc(-c2ccccc2)cc1)c1nc2ccccc2n1Cc1ccc(Br)cc1 readoutkind=growth recordedresult=56.8
molecule="CCCCCCCS(=O)(=O)N1CCCC(C(=O)Nc2nc3ccc(NC(=O)c4ccc(F)c(OC)c4F)cc3s2)C1 (stereo not given)" readoutkind=growth recordedresult=64.7

Please look up its growth: `O=C(N/N=C/c1ccc(-c2ccc(O)cc2)o1)c1[nH]c2ccc(Br)cc2c1-c1ccccc1`
-2.73

Same question, `COc1cccc(COc2ccc(NC(=O)Nc3ccc(Cl)c(C(F)(F)F)c3)cc2)c1` this time
32.1

---

Tested on: MDA-MB-231 breast
testMethodNotes: NCI-60 one-dose screen, 48 h (100 = growth as untreated, 0 = no growth, -100 = all killed)
cond: 10 µM unless noted
This is part of a sample that, as a whole, favours compounds with a hit. Of some 83,000 tested, about 20% had one in any assay.
Lab note - cut at -10% for growth: Yes if strictly below, No if not.

Example results:
compound=O=c1[nH]c2ccccc2cc1CSc1cccc(Nc2nccc(-c3ccc4ccccc4c3)n2)c1 cat=No
compound=Cc1cccc(-c2nc(Nc3cccc(S(N)(=O)=O)c3)c3ccccc3n2)c1 cat=Yes
compound=O=C(COc1ccc(NC(=O)Nc2ccccc2)cc1)N=Nc1c(O)[nH]c2ccc([N+](=O)[O-])cc12 cat=Yes
compound=O=c1onc(-c2cc3ccccc3nc2Cl)n1-c1cccc2ccccc12 cat=No

Could you please tell me whether growth recorded for `Cn1cc(-c2cc3nc(-c4cn(C)c5ncc(Br)cc45)cc(N)n3n2)c2ccccc21` is less than -10%?
Yes

Repeat for the following compound: `COc1cc2oc(-c3cccc(C(=O)Nc4cccc([N+](=O)[O-])c4)c3)cc(=O)c2c(OC)c1OC`
No

Item: `Cc1ccc(C(=O)C(c2c[nH]c3ccccc23)c2c[nH]c3ccccc23)cc1`
No

# repeat for `Cc1ccc(/C=C/c2n(Cc3ccc4ccccc4c3)c3ccccc3[n+]2Cc2ccc3ccccc3c2)cc1`
Yes

Param item: `Cc1ccc(NCC(=O)Cn2cc(COc3ccc(C=Nc4cnc5ccccc5c4)cc3)nn2)cc1`
No

Record: `CN(C)c1ccnc(CNCCSC2(c3ccc(C(F)(F)F)cc3)c3ccccc3CCc3ccccc32)c1`
Yes

Now give it for C=C1CC[C@@H]2[C@]3(C)COC(c4cn[nH]c4-c4cccc(Br)c4)O[C@@H]3CC[C@@]2(C)[C@@H]1C/C=C1/C(=O)OCC1O (stereo partly specified) too.
Yes
